Target: acetylcholine muscarinic M1 receptor (hM1) (Homo sapiens)
Construct: expressed in transfected cells; host or cells: CHOnfat (CHO cells, Geneticin selection)
Sequence (P11229 whole entry): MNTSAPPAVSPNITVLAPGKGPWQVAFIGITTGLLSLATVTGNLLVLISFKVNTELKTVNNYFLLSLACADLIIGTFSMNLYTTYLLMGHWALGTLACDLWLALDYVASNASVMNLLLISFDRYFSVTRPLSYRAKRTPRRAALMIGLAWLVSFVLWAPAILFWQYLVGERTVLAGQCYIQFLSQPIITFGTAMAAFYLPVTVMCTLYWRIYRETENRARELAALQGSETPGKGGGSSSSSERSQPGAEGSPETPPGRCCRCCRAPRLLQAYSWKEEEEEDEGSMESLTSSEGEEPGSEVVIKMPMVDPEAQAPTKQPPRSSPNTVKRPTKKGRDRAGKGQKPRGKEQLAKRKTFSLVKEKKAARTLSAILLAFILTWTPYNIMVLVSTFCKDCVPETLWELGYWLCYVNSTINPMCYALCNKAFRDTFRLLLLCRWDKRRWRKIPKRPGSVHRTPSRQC
Assay: FLIPR intracellular calcium assay for M1 positive allosteric modulator activity in CHOnfat/hM1 cells
Assay type: cell-based
Settings: 4 min preincubation, then acetylcholine EC20 (3 nM final), calculated from FLIPR values, read-out: IP Value (inflection point)
Readout kind: EC50 (nM)

Field: example entries. Status: answers known.
# Smiles text, Readout kind, Unit symbol, Measured value
data = [
    ("CSc1ccc(Cc2cc3c(=O)n([C@H]4CCCC[C@@H]4O)ccc3c3ncccc23)cn1", "EC50", "nM", 15),
    ("O=c1c2cc(Cc3cccnc3)c3cccnc3c2ccn1[C@H]1CCCC[C@@H]1O", "EC50", "nM", 28.6),
    ("O=c1c2cc(Cc3ccc(Cl)nc3)c3cccnc3c2ccn1[C@H]1CCCC[C@@H]1O", "EC50", "nM", 23.5),
]

[a] COc1ccc(Cc2cc3c(=O)n([C@H]4CCOC[C@@H]4O)ccc3c3ncccc23)cn1
[b] O=c1c2cc(Cc3ccnc(OC(F)F)c3)c3cccnc3c2ccn1[C@H]1CCCC[C@@H]1O
[c] Cn1cc(-c2ccc(Cc3cc4c(=O)n([C@H]5CCCC[C@@H]5O)ccc4c4ncccc34)cn2)cn1
(Q) Rank by EC50 (largest to smallest). Return value: ordered labels per request.
(A) b, a, c

Ref: patent US8557992B2
